Test system: KM12 colon
assay-text: NCI tumour cell line growth inhibition, 48 h
parameter: TGI

Look over these answered cases.
>  <compound>
CCCCCCC(=O)CC(=O)C(=O)Nc1ccccc1C

>  <experimental-value>
> 100 µM

$$$$
>  <compound>
C=C1C(OCCO)OC2O[C@]3(C)CCC4[C@H](C)CCC1C24OO3 (some centres undefined)

>  <experimental-value>
> 100 µM

$$$$
>  <compound>
O=C1CC2OCC=C3CN4CCC56c7ccccc7N1C5C2C3CC46 (centres undefined) (tested in a mixture with another compound)

>  <experimental-value>
> 50 µg/mL

$$$$
>  <compound>
N#CCCn1c(CCC(=O)Nc2ccc(Cl)cc2Cl)n[nH]c1=S

>  <experimental-value>
> 100 µM

$$$$
>  <compound>
CC(C)=C=CC(C)(C)NS(=O)(=O)NC(C)(C)C=C=C(C)C

>  <experimental-value>
> 100 µM

$$$$

Hi team, please reply with TGI for each item in this list.
1. Cc1cn(C2CC(O)C(Cn3nncc3Cn3ccc(=O)[nH]c3=O)O2)c(=O)[nH]c1=O (centres undefined)
2. COc1ccc(/C=C2\CC3C4CC=C5C[C@@H](O)CC[C@]5(C)C4CC[C@]3(C)C2=O)cc1OC (some centres undefined)
3. N#CC12CC3(CCC1CCC1(C2)OCCO1)OCCO3 (centres undefined)
4. Nc1nc(N)c(-c2ccc(Cl)cc2)c(/C=C/c2ccc([N+](=O)[O-])cc2)n1
5. OCC(O)C(OC1OC(CO)C(O)C(O)C1O)c1nn(-c2ccc(Cl)cc2)c2nc3cc(Cl)ccc3nc12 (centres undefined)
6. CCCNC(=O)c1cc(NC(=O)c2cc(NC(=O)CCS(=O)(=O)OC)cn2C)cn1C
7. CC(=O)CC(=O)ON(C)C(=O)Cc1ccccc1

> 100 µM
> 100 µM
> 100 µM
> 100 µM
> 100 µM
> 61.5 µM
> 100 µM

Hi team, please reply with TGI for each item in this list.
1. COC(=O)CCc1c(/C=C2\N=C(c3ccc[nH]3)C=C2OC)[nH]c(C)c1C(=O)OCc1ccccc1
2. CC(=O)Nc1ccc2c3c(cc(O)c2c1)N(C(=O)CCCCCC(=O)Nc1ccc2c4c(cc(O)c2c1)N(C(=O)OC(C)(C)C)CC4CCl)CC3CCl (centres undefined)
3. O=C(Nc1ccc(N2CCNCC2)cn1)c1[nH]ncc1Nc1ncnc2sc3c(c12)CCC3
4. CC(C)(C)OC(=O)CC(NC(=O)OC(C)(C)C)C(=O)Oc1ccc([N+](=O)[O-])cc1 (centres undefined)

1: 4.98 µM; 2: 13.6 µM; 3: 6.12 µM; 4: > 100 µM

Hi team, please reply with TGI for each item in this list.
1. C[C@H](c1ccc(Cl)cc1[N+](=O)[O-])N1C(=O)c2cc(I)ccc2NC(=O)[C@H]1c1ccc(Cl)cc1
2. N#C/C=C\c1ccc(-c2cc(C(F)(F)F)cc(C(F)(F)F)c2)o1

1: > 100 µM; 2: > 100 µM

What TGI value was documented for this compound, CCO/N=C(/CC)c1ccc(Br)s1 ?
> 100 µM
